- assayedSystem: T1, Human GAL9 protein (Galectin-9) (human, UniProt O00182 1-355)
- T1 construct: Bought His-tagged protein; also called hGAL9; Human Gal9 His-tag (Acro Biosystems Cat #LG9-H5244)
- T1 sequence (O00182 whole entry): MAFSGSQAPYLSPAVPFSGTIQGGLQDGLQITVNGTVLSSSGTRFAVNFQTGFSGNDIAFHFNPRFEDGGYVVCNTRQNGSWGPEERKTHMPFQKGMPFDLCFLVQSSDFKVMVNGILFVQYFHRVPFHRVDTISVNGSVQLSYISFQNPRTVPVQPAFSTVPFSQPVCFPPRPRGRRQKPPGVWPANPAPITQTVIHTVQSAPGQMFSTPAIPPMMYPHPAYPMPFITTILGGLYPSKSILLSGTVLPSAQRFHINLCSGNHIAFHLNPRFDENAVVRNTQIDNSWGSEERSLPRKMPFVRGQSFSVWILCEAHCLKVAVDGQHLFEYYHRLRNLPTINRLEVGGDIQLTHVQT
- protocolDescription: Octet BLI, IgG1 on biosensor, GAL9 analyte dilution series, global fit (monovalent affinity)
valueKind: pKd
Hey, just a heads up that pKd is the negative log base 10 of the concentration in molar.

binder: P9-22 (antibody, human IgG1, kappa, V domains shown, bivalent monospecific native human full-length IgG1; also called ABS clone P9-22; α-GAL9 (P9-22)) VH: EVQLVESGGGLVQPGGSLRLSCAASGFTFSSYYIHWVRQAPGKGLEWVAAIYPFSGGTYYADSVKGRFTISADTSKNTAYLQMNSLRAEDTAVYYCARGYYVYVVMDYWGQGTLVTVSS VL: DIQMTQSPSSLSASVGDRVTITCRASQSVSSAVAWYQQKPGKAPKLLIYSASSLYSGVPSRFSGSRSGTDFTLTISSLQPEDFATYYCQQYKSSPWTFGQGTKVEIKR
valueKind: pKd
valueObserved: 8.31
--
binder: P9-15 (antibody, human IgG1, kappa, V domains shown, bivalent monospecific native human full-length IgG1; also called ABS clone P9-15; Clone 15) VH: EVQLVESGGGLVQPGGSLRLSCAASGFTFRYYWIHWVRQAPGKGLEWVAAIFPSGGITTYADSVKGRFTISADTSKNTAYLQMNSLRAEDTAVYYCARGWPWGLDYWGQGTLVTVSS VL: DIQMTQSPSSLSASVGDRVTITCRASQSVSSAVAWYQQKPGKAPKLLIYSASSLYSGVPSRFSGSRSGTDFTLTISSLQPEDFATYYCQQRDRSPYTFGQGTKVEIKR
valueKind: pKd
valueObserved: 8.66

// moving on: another record for pKd
The recorded pKd for entry P9-16 (antibody, human IgG1, kappa, V domains shown, bivalent monospecific native human full-length IgG1; also called ABS clone P9-16) VH: EVQLVESGGGLVQPGGSLRLSCAASGFTFSYYWIHWVRQAPGKGLEWVADIYPSSGYTYYADSVKGRFTISADTSKNTAYLQMNSLRAEDTAVYYCARGWYAAYGMDYWGQGTLVTVSS VL: DIQMTQSPSSLSASVGDRVTITCRASQSVSSAVAWYQQKPGKAPKLLIYSASSLYSGVPSRFSGSRSGTDFTLTISSLQPEDFATYYCQQYALRPLTFGQGTKVEIKR equals 8.54
